Taken from patent US20240117334A1.

# ASSAYED_SYSTEM: Human Factor B (Homo sapiens, UniProt P00751)
# Sequence (P00751 26-764): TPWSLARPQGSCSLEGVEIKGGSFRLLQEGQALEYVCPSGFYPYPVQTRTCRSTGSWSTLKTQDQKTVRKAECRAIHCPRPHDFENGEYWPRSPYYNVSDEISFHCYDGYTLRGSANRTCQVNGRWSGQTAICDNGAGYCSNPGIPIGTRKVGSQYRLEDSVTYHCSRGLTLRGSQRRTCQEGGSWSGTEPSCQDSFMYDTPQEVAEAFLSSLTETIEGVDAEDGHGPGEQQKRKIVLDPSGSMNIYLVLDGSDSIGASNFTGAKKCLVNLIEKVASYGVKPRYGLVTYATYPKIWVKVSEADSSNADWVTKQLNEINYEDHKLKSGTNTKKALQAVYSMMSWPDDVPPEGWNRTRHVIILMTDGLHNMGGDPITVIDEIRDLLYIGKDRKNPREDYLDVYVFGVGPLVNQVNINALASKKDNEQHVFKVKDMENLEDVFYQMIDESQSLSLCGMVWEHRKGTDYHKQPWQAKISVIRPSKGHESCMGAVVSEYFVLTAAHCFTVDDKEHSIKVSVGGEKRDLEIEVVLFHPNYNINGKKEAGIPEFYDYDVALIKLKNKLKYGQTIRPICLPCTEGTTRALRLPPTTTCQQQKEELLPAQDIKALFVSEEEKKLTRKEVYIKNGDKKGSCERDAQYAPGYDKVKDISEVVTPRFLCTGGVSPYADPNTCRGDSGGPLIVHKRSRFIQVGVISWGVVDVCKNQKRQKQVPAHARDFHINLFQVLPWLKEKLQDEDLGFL
# ASSAY_METHOD_TEXT: Human Factor B cleavage EC50 in 80% human plasma (Table 10A)
# Assay type: biochemical
# ASSAY_CONTEXT: chymase-based engineered proteases; no plasma stated; read-out: fB Cleavage EC50
Exercise: for every item that follows, state its recorded EC50.
Please reply with the bare figure in µM and do not write the unit itself.

So, C22S/A220S/A226R (protein, listed as Homo sapiens) IIGGTESKPHSRPYMAYLEIVTSNGPSKFCGGFLIRRNFVLTAAHCAGRSITVTLGAHNITEEEDTWQKLEVIKQFRHPKYNTSTLHHDIMLLKLKEKASLTLAVGTLPFPSQFNFVPPGRMCRVAGWGRTGVLKPGSDTLQEVKLRLMDPQACSHFRDFDHNLQLCVGNPRKTKSAFKGDSGGPLLCAGVAQGIVSYGRSDSKPPRVFTRISHYRPWINQILQAN ? Its EC50 was 5.56

So, C22S/F173Y/A226R (protein, listed as Homo sapiens) IIGGTESKPHSRPYMAYLEIVTSNGPSKFCGGFLIRRNFVLTAAHCAGRSITVTLGAHNITEEEDTWQKLEVIKQFRHPKYNTSTLHHDIMLLKLKEKASLTLAVGTLPFPSQFNFVPPGRMCRVAGWGRTGVLKPGSDTLQEVKLRLMDPQACSHYRDFDHNLQLCVGNPRKTKSAFKGDSGGPLLCAGVAQGIVSYGRSDAKPPRVFTRISHYRPWINQILQAN ? Its EC50 was 0.65
